Recorded values, source patent EP3789378A1.

Target: h FPR2 (Homo sapiens, UniProt P25090)
Construct: expressed in transfected cells
Sequence (P25090 1-351): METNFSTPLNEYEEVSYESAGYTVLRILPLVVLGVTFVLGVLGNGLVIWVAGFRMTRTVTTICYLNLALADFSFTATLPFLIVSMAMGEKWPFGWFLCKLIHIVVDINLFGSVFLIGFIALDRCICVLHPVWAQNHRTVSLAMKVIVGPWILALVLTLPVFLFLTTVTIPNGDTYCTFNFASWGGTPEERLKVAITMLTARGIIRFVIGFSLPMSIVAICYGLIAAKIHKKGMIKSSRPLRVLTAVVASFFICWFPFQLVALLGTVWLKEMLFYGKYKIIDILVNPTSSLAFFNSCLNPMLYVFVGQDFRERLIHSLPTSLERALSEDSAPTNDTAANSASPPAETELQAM
Assay: Agonistic activity in hFPR2-Aq-CHO cells (FLIPR Calcium 5 fluorescence assay)
Assay type: cell-based
Conditions: agonistic response at 0.1µM
observation_type: activation at 0.1 µM (%)
One number for each entry, in %.

Example compounds with recorded activation at 0.1 µM:
COc1ccc([C@@H]2CNCC[C@H]2NC(=O)Nc2ccc(Cl)cc2)nc1 (relative stereo) : 23
COc1ccc([C@@H]2CN(C(=O)c3cnccc3C(F)(F)F)CC[C@H]2NC(=O)Nc2ccc(Cl)cc2)nc1 (relative stereo) : 26
COc1ccc([C@@H]2CN(Cc3ccn(S(C)(=O)=O)n3)CC[C@H]2NC(=O)Nc2ccccc2)nc1 (relative stereo) : 26
COc1ccc([C@@H]2CN(C3COC3)CC[C@H]2NC(=O)Nc2ccccc2)nc1 (relative stereo) : 34
COc1ccc([C@@H]2CN(c3ccncn3)C(=O)C[C@H]2NC(=O)Nc2ccc(Cl)cc2)nc1 (relative stereo) : 17
COc1ccc([C@@H]2CN(CC(C)(C)O)CC[C@H]2NC(=O)Nc2cc(C)ns2)nc1 (relative stereo) : 5

Read the next record carefully.
Sure, the documented activation at 0.1 µM for Cc1cc(CN2CC[C@@H](NC(=O)Nc3ccc(Cl)cc3)[C@H](c3ccc(Cl)s3)C2)no1 (relative stereo) is 10

====

molecular target: h FPR2 (Homo sapiens, UniProt P25090); construct: expressed in transfected cells; experiment: Agonistic activity in hFPR2-Aq-CHO cells (FLIPR Calcium 5 fluorescence assay); type: cell-based; conditions: 11 point half log dilution, final assay concentration from 10µM
Give measured EC50 for each item. Keep answers brief.
Numbers only, in nM.

Example compounds with recorded EC50:
COc1ccc([C@@H]2CN(CC3(O)COC3)CC[C@H]2NC(=O)Nc2cc(C)ns2)nc1 (relative stereo) : 6
O=C(Nc1ccc(Cl)cc1)N[C@@H]1CCN(Cc2cncc(F)c2)C[C@H]1c1ccc(Cl)s1 (relative stereo) : 2
COC1CCC(CN2CC[C@@H](NC(=O)Nc3ccc(Cl)cc3)[C@H](c3ccc(Cl)s3)C2)CC1 (relative stereo) : 9

Read the next record carefully.
Observed EC50 on h FPR2 (Homo sapiens, UniProt P25090), entry COc1ccc([C@@H]2CN(CC(N)=O)CC[C@H]2NC(=O)Nc2ccc(Cl)cc2)nc1 (single isomer, unassigned) [Ex-170] , equals 0.3

====

Target: h FPR2 (Homo sapiens, UniProt P25090)
Sequence (P25090 1-351): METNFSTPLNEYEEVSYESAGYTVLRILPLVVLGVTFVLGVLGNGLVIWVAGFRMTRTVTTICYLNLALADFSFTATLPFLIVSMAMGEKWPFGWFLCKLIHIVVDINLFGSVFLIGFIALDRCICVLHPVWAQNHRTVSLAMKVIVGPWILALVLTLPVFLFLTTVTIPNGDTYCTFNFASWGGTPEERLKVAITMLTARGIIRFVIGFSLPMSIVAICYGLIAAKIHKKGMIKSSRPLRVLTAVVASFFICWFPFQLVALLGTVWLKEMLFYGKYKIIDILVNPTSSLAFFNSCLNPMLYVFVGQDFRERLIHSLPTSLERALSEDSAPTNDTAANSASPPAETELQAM
Assay: Agonistic activity in hFPR2-Aq-CHO cells (FLIPR Calcium 5 fluorescence assay)
Settings: 11 point half log dilution, final assay concentration from 10µM
pEC50: −log10 of the molar value.
Entries are grouped by pEC50 into these classes: bin A: < 8; bin B: ≥ 8 and < 9; bin C: ≥ 9

Solved entries (count: 8):
COc1ccc([C@@H]2CN(Cc3ccc(C(F)(F)F)nc3)CC[C@H]2NC(=O)Nc2ccc(Cl)cc2)nc1 (relative stereo) [Ex-60] : bin C
COc1ccc([C@@H]2CN(C(=O)c3cnccc3C)CC[C@H]2NC(=O)Nc2ccc(Cl)cc2)nc1 (single isomer, unassigned) [Ex-53] : bin A
Cc1cc(CN2CC[C@@H](NC(=O)Nc3ccc(Cl)cc3)[C@H](c3ccc(Cl)cn3)C2)no1 (single isomer, unassigned) [Ex-22] : bin C
Cc1cc(NC(=O)N[C@@H]2CCN(Cc3ncccn3)C[C@H]2c2ccc(Cl)s2)sn1 (single isomer, unassigned) [Ex-62] : bin C
CS(=O)(=O)n1ccc(CN2CC[C@@H](NC(=O)Nc3ccc(Cl)cc3)[C@H](c3ccc(Cl)s3)C2)n1 (single isomer, unassigned) [Ex-78] : bin A
O=C(Nc1ccc(Cl)cc1)N[C@@H]1CCN(Cc2ccc(C3CC3)nc2)C[C@H]1c1ccc(Cl)s1 (relative stereo) [Ex-73] : bin B
CNCCCN1CC[C@@H](NC(=O)Nc2ccc(Cl)cc2)[C@H](c2ccc(OC)cn2)C1 (relative stereo) [Ex-137] : bin C
O=C(Nc1ccccc1)N[C@@H]1CCN(C(=O)C2CCNCC2)C[C@H]1c1ccc(Cl)cn1 (relative stereo) [Ex-167] : bin A

Q) The entry to classify is O=C(Nc1ccc(Cl)cc1)N[C@@H]1CCN(c2ccncn2)C[C@H]1c1ccc(Cl)cn1 (relative stereo) [Ex-9] ; which class holds it?
A) bin B

Q) The entry to classify is COc1ccc([C@@H]2CN(Cc3cnn(C)c3)CC[C@H]2NC(=O)Nc2ccc(C#N)cc2)nc1 (relative stereo) [Ex-146] ; which class holds it?
A) bin B

Q) The entry to classify is O=C(Nc1ccc(Cl)cc1)N[C@@H]1CCN(Cc2ncccn2)C[C@H]1c1ccc(Cl)s1 (single isomer, unassigned) [Ex-47] ; which class holds it?
A) bin A
